As shown below, each of these proteins has a reported Enzyme Activity Endpoint Assay (purified): Fab'2 value.
- testedSystem: pooled human IgG
Field: numeric (ng/µL). Do not append units.

>  <protein>
PRT-249 (protein) MVTSVWTKGVTPPTNFTYGEDVLHAPYVANQGWYDITKTFNGKDDLLCGAATAGNMLHWWFDQNKEQIENYLKKHPEKQKINFNGEQMFDVKEAIDTKDSQLDSKLFDYFKEKAFPNLSTKHLGVFPDHVIDMFINGYRLSLLNHGPTPVKRGSKDPRGGIFDAVFTRGDQSKLLTNRHDFKEKTLKEISDLIKQELTEGKALGISHTYANVRINHVINLWGADFDAEGNLEAIYVTDSDSNPSIGMKKYFVGVNSSGKVAISAKEIEEDNIGAQVLGLFTLSTGQDIWNQTN

>  <unitTag>
ng/µL

>  <experimentalValue>
818

$$$$
>  <protein>
PRT-232 (protein) MEVVEVWPYGQNPNGKTEILSQTEDSESLQRLRDIEDFQAEKKMQNVVYTKWLDGVDVKDHDFRKIVDGNIAYYATPLLNGRGFYDINKDFNRDSDKCAAAVAANMFHYWLDINRDNVDRFLRQNPEKHGIIELPDGQLKLSDFLNTYESDHGYRDKSKLFDFISNNFNGPVWTDKLLDNYINGYAYNYKYGRTIEDPTKNTSKINFFKEVFNEKILTNNHSIRNQNEFSVLLSEALYTGKAIGLSYGPAGLRHSLGHIISVWGADLDADGNVVAIYVTDSDDKKLTIGDERVGLKRYKISTDDENRLRLTAYEETHNTGGQIRGLWTLDTGKEAWADYFDKTEQTGTDQAEQLEHHHHHH

>  <unitTag>
ng/µL

>  <experimentalValue>
40

$$$$
>  <protein>
PRT-242 (protein) MVTSVWTKGVTPPANFTQGEDVFHAPYVANQGWYDITKTFNGKDDLLCGAATAGNMLHWWFDQNKDQIKRYLEEHPEKQKINFNGEQMFDVKEAIDTKNHQLDSKLFDYFKEKAFPNLSTKHLGVFPDHVIDMFINGYRLSLLNHGPTPVKEGSKDPRGGIFDAVFTRGDQSKLLTSRHDFKEKNLKEISDLIKKELTEGKALGLSHTYANVRINHVINLWGADFDSNGNLKAIYVTDSDSNPSIGMKKYFVGVNSSGKVAISAKEIKEDNIGAQVLGLFTLSTGQDSWNQTN

>  <unitTag>
ng/µL

>  <experimentalValue>
1030

$$$$

For reference, reported Enzyme Activity Endpoint Assay (purified): Fab'2 for PRT-234 (protein) MEVVEVWPYGQNPNGKTEILSQTEDSESLQRLRDIEDFQAEKKMQNVVYTKWLDGVDVKDHDFRKIVDGNIAYYATPLLNGRGFYDINKDFNRDSDKCAAAVAANMFHYWLDINRDNVDRFLRQNPEKHGIIELPDGQLKLSDFLNTYESDDGYRDKSKLFDFISNNFNGPVWTDKLLDNYINGYAYNYKYGRTIEDPTKNTSKINFFKEVFNEKILTNNHSIRNQNEFSVLLSEALYTGKAIGLSYGPAGLRHSLGHIISVWGADLDADGNVVAIYVTDSDDKKLTIGDERVGLKRYKISTDDENRLRLTAYEETHNTGGQIRGLWTLDTGKYAWADYFDKTEQTGTDQAEQLEHHHHHH stands at 88

Cited source for all entries: patent US20250027068
